Assay: Pharmacokinetics of the compound in Balb/c mice
Assay type: in vivo
Conditions: mouse, plasma; IV (1 mg/kg), male Balb/c mice, fasted; read-out: Cl (clearance rate)
EXPERIMENTAL_READOUT: clearance (mL/min/kg)
Enter your answer as a number in mL/min/kg; do not include the unit.

Record [2H]C([2H])([2H])CC(=O)c1cnc(NC(=O)C2CC2)cc1Nc1cccc(-c2cnc(N=S(C)(C)=O)cn2)c1OC [Compound 1] . Reported clearance: 3.39

----------
Assay: Pharmacokinetics of the compound in Balb/c mice
Type: in vivo
Conditions: mouse, plasma; IV (1 mg/kg), male Balb/c mice, fasted; read-out: AUC (exposure)
Experimental: • Purpose of assay: To assay the pharmacokinetics of the compound in Balb/c mice • Assay materials: Male Balb/c mice, fasted […] Acclimatization/quarantine of Balb/c mice was performed for at least 3 days after arrival at the facility. […] The animals were weighed before administration and the administered volume was calculated based on body weight. […] The data of blood drug concentration-time were analyzed using the WinNonlin software package (Version 6.3 and above) using a non-compartmental model. […]
EXPERIMENTAL_READOUT: AUC
Could you write the number and then its unit?

Record [2H]C([2H])([2H])CC(=O)c1cnc(NC(=O)C2CC2)cc1Nc1cccc(-c2cnc(N=S(C)(C)=O)cn2)c1OC [Compound 1] . Reported AUC: 9.38 µM·h

----------
Assay: Pharmacokinetics of the compound in Balb/c mice
Type: in vivo
Settings: mouse, plasma; PO (10 mg/kg), male Balb/c mice, fasted; read-out: Cmax (maximum concentration)
Method: • Purpose of assay: To assay the pharmacokinetics of the compound in Balb/c mice • Assay materials: Male Balb/c mice, fasted […] Acclimatization/quarantine of Balb/c mice was performed for at least 3 days after arrival at the facility. […] The animals were weighed before administration and the administered volume was calculated based on body weight. […] The data of blood drug concentration-time were analyzed using the WinNonlin software package (Version 6.3 and above) using a non-compartmental model. […]
EXPERIMENTAL_READOUT: Cmax (µM)
Enter your answer as a number in µM; do not include the unit.

Record [2H]C([2H])([2H])CC(=O)c1cnc(NC(=O)C2CC2)cc1Nc1cccc(-c2cnc(N=S(C)(C)=O)cn2)c1OC [Compound 1] . Reported Cmax: 13.4

----------
Test: Pharmacokinetics of the compound in Balb/c mice
Format: in vivo
Details: mouse, plasma; IV (1 mg/kg), male Balb/c mice, fasted; read-out: T1/2 (half-life) (converted)
EXPERIMENTAL_READOUT: half-life
Could you write the number and then its unit?

Record "[2H]C([2H])([2H])CC(=O)c1cnc(NC(=O)C2CC2)cc1Nc1cccc(-c2cnc(N=S(C)(C)=O)cn2)c1OC" . Reported half-life: 1.61 h

----------
Biological target: TYK2 protein (His-TVMV-TYK2 JH2 (575-869)) (Homo sapiens (Human), UniProt P29597)
Sequence (P29597 575-869, species assumed): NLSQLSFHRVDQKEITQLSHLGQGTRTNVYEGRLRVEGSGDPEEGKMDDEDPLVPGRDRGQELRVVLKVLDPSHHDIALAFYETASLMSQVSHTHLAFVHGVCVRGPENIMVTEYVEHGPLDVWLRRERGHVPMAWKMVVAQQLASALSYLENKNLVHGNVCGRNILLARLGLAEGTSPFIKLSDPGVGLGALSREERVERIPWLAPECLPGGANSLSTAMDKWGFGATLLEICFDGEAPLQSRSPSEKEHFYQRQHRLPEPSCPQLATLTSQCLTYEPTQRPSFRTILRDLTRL
Assay: Tyk2 JH2 enzymatic activity assay (HTRF, fluorescein-labeled kinase tracer)
Format: binding
Conditions: 90 minutes at room temperature
Consider the cut-off 0.09 nM. If the recorded IC50 is strictly smaller, the label is Satisfied; if not, the label is Not satisfied.

Please review the following examples before continuing.
[2H]C([2H])([2H])CC(=O)c1cnc(NC(=O)C23CC(C2)C3)cc1Nc1cccc(-c2cnc(N=S(C)(C)=O)cn2)c1OC    Not satisfied
[2H]C([2H])([2H])CC(=O)c1cnc(NC(=O)C2CC2)cc1Nc1cccc(-c2cnc(N=S3(=O)CCN(C)CC3)cn2)c1OC    Not satisfied
[2H]C([2H])([2H])CC(=O)c1cnc(NC(=O)C2C3COCC32)cc1Nc1cccc(-c2cnc(N=S(C)(C)=O)cn2)c1OC (centres unmarked)    Not satisfied
[2H]C([2H])([2H])CC(=O)c1cnc(NC(=O)C2CC2)cc1Nc1cccc(-c2cnc(N=S3(=O)CCC3)cn2)c1OC    Not satisfied
[2H]C([2H])([2H])CC(=O)c1cnc(NC(=O)C2CC2)cc1Nc1cccc(-c2cnc(N=S3(=O)CCOCC3)cn2)c1OC    Satisfied

Record "[2H]C([2H])([2H])CC(=O)c1cnc(NC(=O)C2CC2)cc1Nc1cc(F)cc(-c2cnc(N=S(C)(C)=O)cn2)c1OC" : is its IC50 strictly below 0.09 nM?
Satisfied

Record "[2H]C([2H])([2H])CC(=O)c1cnc(NC(=O)NC2CC2)cc1Nc1cccc(-c2cnc(N=S(C)(C)=O)cn2)c1OC" : is its IC50 strictly below 0.09 nM?
Not satisfied

Record "[2H]C([2H])([2H])CC(=O)c1cnc(NC(=O)C2CC2)cc1Nc1nccc(-c2cnc(N=S(C)(C)=O)cn2)c1OC" : is its IC50 strictly below 0.09 nM?
Satisfied

Record "[2H]C([2H])([2H])CC(=O)c1cnc(Nc2cc3cc[nH]c3cn2)cc1Nc1cccc(-c2cnc(N=S(C)(C)=O)cn2)c1OC" : is its IC50 strictly below 0.09 nM?
Not satisfied

----------
This listing pairs molecules with measured log10 IC50.
Biological target: TYK2 protein (His-TVMV-TYK2 JH2 (575-869)) (Homo sapiens (Human))
Test: Tyk2 JH2 enzymatic activity assay (HTRF, fluorescein-labeled kinase tracer)
Assay type: binding
Details: 90 minutes at room temperature
Structures can show the parent of a compound that is named as a salt.
Scale type: logarithmic (base 10). Underlying IC50 unit: nM.

Reference set, count: 3
[2H]C([2H])([2H])CC(=O)c1cnc(Nc2ccn(C)c(=O)c2)cc1Nc1cccc(-c2cnc(N=S(C)(C)=O)cn2)c1OC [Compound 35]    -0.12
[2H]C([2H])([2H])CC(=O)c1cnc(Nc2cccc(C#N)n2)cc1Nc1cccc(-c2cnc(N=S(C)(C)=O)cn2)c1OC [Compound 12]    -1.30
[2H]C([2H])([2H])CC(=O)c1cnc(Nc2ccc(F)cn2)cc1Nc1cccc(-c2cnc(N=S(C)(C)=O)cn2)c1OC [Compound 11]    -0.96

Record [2H]C([2H])([2H])CC(=O)c1cnc(NC(=O)C2CCC2)cc1Nc1cccc(-c2cnc(N=S(C)(C)=O)cn2)c1OC [Compound 14] . Reported log10 IC50: -0.60

Record COCC(=O)c1cnc(NC(=O)C2CC2)cc1Nc1cccc(-c2cnc(N=S(C)(C)=O)cn2)c1OC [Compound 17] . Reported log10 IC50: -0.54

Record [2H]C([2H])([2H])CC(=O)c1cnc(NC(=O)C2CC3(CCC3)C2)cc1Nc1cccc(-c2cnc(N=S(C)(C)=O)cn2)c1OC [Compound 32] . Reported log10 IC50: -0.51

Record CCC(=O)c1cnc(NC(=O)C2CC2)cc1Nc1cccc(-c2cnc(N=S(C)(C)=O)cn2)c1OC [Compound 4] . Reported log10 IC50: -1.15

Record [2H]C([2H])([2H])CC(=O)c1cnc(NC(=O)C2CC2)cc1Nc1cc(OC)cc(-c2cnc(N=S(C)(C)=O)cn2)c1OC [Compound 22 hydrochloride] . Reported log10 IC50: -0.85
